# Test system: NCI-H295R
# ASSAY INFO: AC50 viability; higher = less potent
# CONDITION NOTES: 48 h
# label = Met if AC50 viability < 3 µM else Not met

// known answers, use as guide
COMPOUND | ASSAY SYSTEM | CLASS ASSIGNMENT
CON(C)C(=O)N1/N=C(S[C@@]1(CCCN)C2=CC=CC=C2)/C3=CC(=CC=C3F)F | NCI-H295R | Met
Cc1ccc(C(=O)Nc2cccc(C(F)(F)F)c2)cc1Nc1nc(-c2cccnc2)nc2c1cnn2C | NCI-H295R | Not met
CC[S+]([O-])(=O)NC1=CC(=C(OC2=C(F)C=C(F)C=C2)C=C1)\C3=C\N(C)C(=O)C4=C3C=C[NH]4 | NCI-H295R | Not met
COc1cccc2c1C(=O)c1c(O)c3c(c(O)c1C2=O)C[C@@](O)(C(C)=O)C[C@@H]3O[C@H]1C[C@H](N)[C@H](O)[C@H](C)O1 | NCI-H295R | Not met
COc1ncc(-c2ccc3nccc(-c4ccnnc4)c3c2)cc1N[S+](=O)([O-])c1ccc(F)cc1F | NCI-H295R | Met

Is the reported AC50 viability for CC1=C(C)C\2=C(S1)[N]3C(=NN=C3[C@H](CC(=O)NC4=CC=C(OCCOCCOCCOCCNC5=CC=CC6=C5C(=O)N(C7CCC(=O)NC7=O)C6=O)C=C4)\N=C2C8=CC=C(Cl)C=C8)C (stereo partly drawn) strictly below 3 µM?
Met

Same again, this time with CN(C)c1ccc2cc(C(=O)N[C@@H](CCCNC(=N)CCl)C(=O)NCc3ccccc3)ccc2c1
Not met

###

# Test system: NCI-H295R
# ASSAY INFO: area under concentration-response curve (viability) (AUC (a.u.)); higher = less active
# CONDITION NOTES: 48 h
Task for the reader: assign each of the following compounds its reported area under concentration-response curve.
Numbers only.

COMPOUND | area under concentration-response curve
N#Cc1ccnc(N2C(=O)CC[C@H]2C(=O)N(c2cncc(F)c2)[C@H](C(=O)NC2CC(F)(F)C2)c2ccccc2Cl)c1 | 560
COc1ccc(C2(C#N)CCC(C(=O)O)CC2)cc1OC1CCCC1 (stereo not drawn) | 606

Query compound follows.
Fill in: area under concentration-response curve of CC(C)[C@H](CO)Nc1nc(Nc2ccc(C(=O)O)c(Cl)c2)c2ncn(C(C)C)c2n1 is ___
594

###

Task for the reader: assign each of the following compounds its reported area under concentration-response curve.
# Tested on: CU-ACC2
# ASSAY INFO: area under concentration-response curve (viability) (AUC (a.u.)); higher = less active
# CONDITION NOTES: 48 h
One number for each entry.

GIVEN SMILES | QUANTITY | NUMERIC RESULT
CC/1=C/C[C@]23O[C@@]2(C)CC[C@@H]4[C@H](OC(=O)C4=C)[C@@H]13 | area under concentration-response curve | 509

Report area under concentration-response curve for each item below.
1. O=C(O)/C=C/c1ccc(Cn2ccnc2)cc1
2. NC1=C(Cl)C(=CC=N1)OC2=C(F)C=C(NC(=O)\C3=C\N\C=C(C3=O)\C4=CC=C(F)C=C4)C=C2

486
502

###

# Tested on: NCI-H295R
# ASSAY INFO: area under concentration-response curve (viability) (AUC (a.u.)); higher = less active
# CONDITION NOTES: 48 h
Quick rule: area under concentration-response curve of at least 500 means condition met, below that means condition not met.

COMPOUND | CLASS ASSIGNMENT
O=C(c1ccc(N[S+](=O)([O-])c2cccc3cccnc23)cc1)N1CCN(CC2CC2)CC1 | condition met
COc1cccc(Nc2c(C(N)=O)cnc3c(C)cc([S+](=O)([O-])c4cccc(C(=O)N(C)C)c4)cc23)c1 | condition met
CC1Cc2ccccc2N1NC(=O)c1ccc(Cl)c([S+](N)(=O)[O-])c1 (centres undefined) | condition met
O=C1S/C(=C\c2ccc(OCc3cccc(B(O)O)c3)cc2)C(=O)N1Cc1ccc(F)cc1 | condition not met
CC(C)(C(=O)NCC(F)(F)C(F)(F)F)C(=O)N[C@@H]1C(=O)Nc2ccccc2-c2ccccc21 | condition not met
Cc1nnc(N[S+](=O)([O-])c2ccc(N)cc2)s1 | condition met

Can COc1ccc([C@@H]2Sc3ccccc3N(CCN(C)C)C(=O)[C@@H]2OC(C)=O)cc1 be said to have area under concentration-response curve at or above 500?
condition met
